biological target: HLA-B*27:03; experiment: IEDB peptide-MHC binding, purified MHC/competitive/fluorescence; filed as Kd, often an IC50 or EC50 that approximates it; bounds were set here for any values at or beyond the usual limits of such assays; details: source organism: Orthohantavirus andesense
pKd: −log10 of the molar value.
METRIC_NAME: pKd

Item YLIPSVTSL : provide pKd ≤ 4.70

---

target: HLA-B*18:01; experiment: IEDB peptide-MHC binding, purified MHC/competitive/fluorescence; filed as Kd, often an IC50 or EC50 that approximates it; bounds were set here for any values at or beyond the usual limits of such assays; settings: source organism: Rickettsia sibirica 246
METRIC_NAME: Kd

Provide only the value of recorded Kd for AMYDPQTYY ≥ 20 µM

---

Collected pKd values appear next to each entry.
target: HLA-B*39:01; assay: IEDB peptide-MHC binding, purified MHC/direct/fluorescence; filed as Kd, often an IC50 or EC50 that approximates it; bounds were set here for any values at or beyond the usual limits of such assays; settings: source organism: Mycobacterium tuberculosis str. Haarlem
pKd: −log10 of the molar value.

LPVEYLQVP ≤ 4.70

Next up:
Give the measured pKd for APAKKAAAK ≤ 4.70

---

biological target: HLA-A*02:01; experiment: IEDB peptide-MHC binding, purified MHC/competitive/fluorescence; filed as Kd, often an IC50 or EC50 that approximates it; bounds were set here for any values at or beyond the usual limits of such assays; settings: source organism: Giardia lamblia ATCC 50803
METRIC_NAME: pKd
Formally, pKd is defined as -log10 of the concentration c, with c in mol/L.

Give the reported value of pKd for this record: SVFQGALFA 5.72

---

target: HLA-B*15:01; experiment: IEDB peptide-MHC binding, purified MHC/competitive/fluorescence; filed as Kd, often an IC50 or EC50 that approximates it; bounds were set here for any values at or beyond the usual limits of such assays; details: source organism: Orthohantavirus negraense
pKd: −log10 of the molar value.
METRIC_NAME: pKd

Return reported pKd for target or system HLA-B*15:01, item RRFTQAIYD . ≤ 4.70

---

molecular target: HLA-B*58:01; assay: IEDB peptide-MHC binding, purified MHC/direct/fluorescence; filed as Kd, often an IC50 or EC50 that approximates it; bounds were set here for any values at or beyond the usual limits of such assays; settings: source organism: Mammarenavirus juninense
METRIC_NAME: Kd

In one line, give reported Kd of the entry KLDPTNTLW . 66.9 nM

---

biological target: HLA-A*03:01; experiment: IEDB peptide-MHC binding, purified MHC/competitive/radioactivity; filed as Kd, often an IC50 or EC50 that approximates it; bounds were set here for any values at or beyond the usual limits of such assays; settings: source organism: Mammarenavirus tacaribeense
METRIC_NAME: Kd (µM)
A number alone suffices; assume µM.

Provide Kd value for the following sequence: NCKCCWFADK 13.3

---

molecular target: HLA-A*02:01; assay: IEDB peptide-MHC binding, purified MHC/competitive/fluorescence; filed as Kd, often an IC50 or EC50 that approximates it; bounds were set here for any values at or beyond the usual limits of such assays; conditions: source organism: West Nile virus
METRIC_NAME: pKd
pKd is defined as minus the log10 of a concentration measured in mol/L.

Return pKd for the following sequence: YTMDGEYRL 8.86

---

target: HLA-B*07:02; assay: IEDB peptide-MHC binding, purified MHC/direct/fluorescence; filed as Kd, often an IC50 or EC50 that approximates it; bounds were set here for any values at or beyond the usual limits of such assays; details: source organism: Influenza A virus (A/Viet Nam/HN/2004(H5N1))
METRIC_NAME: Kd

Give Kd for ERNEQGQTL ≥ 20 µM

---

target: HLA-A*26:01; assay: IEDB peptide-MHC binding, purified MHC/direct/fluorescence; filed as Kd, often an IC50 or EC50 that approximates it; bounds were set here for any values at or beyond the usual limits of such assays; details: source organism: Haemophilus influenzae
pKd: −log10 of the molar value.
METRIC_NAME: pKd

Quick one: give measured pKd for LIFPAFFLC ≤ 4.70

---

target: HLA-B*15:01; test: IEDB peptide-MHC binding, purified MHC/competitive/fluorescence; filed as Kd, often an IC50 or EC50 that approximates it; bounds were set here for any values at or beyond the usual limits of such assays; details: source organism: Vibrio cholerae 2740-80
METRIC_NAME: Kd

Provide one value: measured Kd of CERYGFPAS ≥ 20 µM

---

biological target: HLA-A*68:02; assay: IEDB peptide-MHC binding, purified MHC/competitive/radioactivity; filed as Kd, often an IC50 or EC50 that approximates it; bounds were set here for any values at or beyond the usual limits of such assays; conditions: source organism: Dengue virus 4 Philippines/H241/1956
METRIC_NAME: Kd (nM)
Record the value in nM, omitting the unit from your answer.

MTTEDMLKV 41.8

Supply Kd value. Item: TTAKEVALL 21.8

---

target: HLA-B*35:01; test: IEDB peptide-MHC binding, purified MHC/competitive/radioactivity; filed as Kd, often an IC50 or EC50 that approximates it; bounds were set here for any values at or beyond the usual limits of such assays; details: source organism: Dengue virus 3 Martinique/1243/1999
METRIC_NAME: Kd

For the sequence FTILALFLAH , give its reported Kd. ≥ 24.9 µM

---

Below is a list of entries, each paired with its recorded pKd value.
target: HLA-A*02:02; experiment: IEDB peptide-MHC binding, purified MHC/competitive/radioactivity; filed as Kd, often an IC50 or EC50 that approximates it; bounds were set here for any values at or beyond the usual limits of such assays; settings: source organism: SARS coronavirus Tor2
Interpret pKd as the negative base-10 log of the concentration measured in mol/L.

Consider the following illustrative entries.
ALLFLMSFTI 9.44
ITMTTVYHI 7.72
LLLSICLGSL 7.70
FLTSLLILV 8.66
FLFLAWIMLL 7.73

Let us move to another entry and its pKd.
Provide pKd value for the following sequence: FLLNKEMYL 9.48

---

target: HLA-B*46:01; assay: IEDB peptide-MHC binding, purified MHC/competitive/fluorescence; filed as Kd, often an IC50 or EC50 that approximates it; bounds were set here for any values at or beyond the usual limits of such assays; conditions: source organism: Zaire ebolavirus
pKd: −log10 of the molar value.
METRIC_NAME: pKd

LSDLCNFLV ≤ 4.70

We now examine a further sequence.
Tell me its pKd given LEARVNLSV as the entry. ≤ 4.70

---

target: HLA-C*15:02; assay: IEDB peptide-MHC binding, purified MHC/direct/fluorescence; filed as Kd, often an IC50 or EC50 that approximates it; bounds were set here for any values at or beyond the usual limits of such assays; conditions: source organism: dengue virus type 1
pKd: −log10 of the molar value.
METRIC_NAME: pKd

Return the recorded pKd value; entry: YLAGAGLAF ≤ 4.70

---

pIC50 by entry:
biological target: HLA-A*24:02; assay: IEDB peptide-MHC binding, purified MHC/competitive/fluorescence; bounds were set here for any values at or beyond the usual limits of such assays; settings: source organism: Zaire ebolavirus
Here pIC50 is given on a logarithmic scale as minus log10 of the concentration in mol/L.

In the examples that follow, each entry is paired with its recorded pIC50.
ANAGQFLSF 6.24
FDAVLYYHM 4.92
GLFPQLSAI 5.10

// fetch pIC50 given entry TLAAMPEEE 5.00

Given the sequence ELRTFSILN , write its reported pIC50. 4.52

Please report the measured pIC50 for IWMAPSLTE 6.59

Provide one value: measured pIC50 of IQAFEAGVD 4.48

---

biological target: HLA-A*02:03; assay: IEDB peptide-MHC binding, purified MHC/competitive/fluorescence; filed as Kd, often an IC50 or EC50 that approximates it; bounds were set here for any values at or beyond the usual limits of such assays; conditions: source organism: Entamoeba histolytica HM-1:IMSS
METRIC_NAME: Kd

Give Kd only, for KVSVGSYFC , using HLA-A*02:03 data. ≥ 20 µM

---

target: HLA-A*11:01; experiment: IEDB peptide-MHC binding, purified MHC/direct/fluorescence; filed as Kd, often an IC50 or EC50 that approximates it; bounds were set here for any values at or beyond the usual limits of such assays; conditions: source organism: Homo sapiens
Items are presented alongside their recorded Kd.

YFDPANGKF ≥ 44.1 µM

Consider the sequence TFDVAPSRL and give its recorded Kd. ≥ 32.6 µM

---

molecular target: HLA-A*26:02; test: IEDB peptide-MHC binding, purified MHC/competitive/fluorescence; filed as Kd, often an IC50 or EC50 that approximates it; bounds were set here for any values at or beyond the usual limits of such assays; conditions: source organism: Human immunodeficiency virus 1
METRIC_NAME: Kd

Check the records and state Kd for LYNTIAVLY ≥ 20 µM
